Target: Substance-P receptor (Cavia porcellus)
Sequence (P30547 whole entry): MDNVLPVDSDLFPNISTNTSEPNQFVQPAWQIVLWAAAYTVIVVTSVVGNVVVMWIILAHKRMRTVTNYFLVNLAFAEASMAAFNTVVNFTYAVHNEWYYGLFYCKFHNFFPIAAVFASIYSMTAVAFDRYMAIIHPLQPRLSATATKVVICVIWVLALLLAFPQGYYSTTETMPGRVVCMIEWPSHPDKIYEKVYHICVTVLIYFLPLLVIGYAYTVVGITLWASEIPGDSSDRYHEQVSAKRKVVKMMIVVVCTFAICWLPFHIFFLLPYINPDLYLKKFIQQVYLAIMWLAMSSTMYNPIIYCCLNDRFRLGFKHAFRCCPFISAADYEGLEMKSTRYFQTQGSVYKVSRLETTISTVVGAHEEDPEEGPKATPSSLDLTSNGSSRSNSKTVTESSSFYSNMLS
Test: Concentration producing half-maximal inhibition of specific binding of. [125I]Bolton-Hunter Substance P to NK-1 receptors in the guinea pig cerebral cortex
Type: tissue-based
Numbered stars: 1 amine (or outer) side, 2 acyl side, 3 side chain; on linkers, the order of the positions; unused ones are H or OH. Square brackets hold non-standard residues; d marks the D form. Peptide text beside a SMILES is read from it. X1 = C/C=C/CC[C@H](N[*:1])C(=O)[*:2]; pGlu = O=C1CC[C@@H](C(=O)O)N1
MEASURED_PARAMETER: IC50 (nM)
State the answer as a number, implicitly in nM.

COMPOUND	EXPERIMENTAL_RESULT
C/C=C/CC[C@H](NC(=O)[C@H](CC(C)C)NC(=O)CNC(=O)[C@H](Cc1ccccc1)NC(=O)[C@H](Cc1ccccc1)NC(=O)[C@H](CCC(N)=O)NC(=O)[C@H](CCC(N)=O)NC(C)=O)C(N)=O (Ac-QQFFGL[X1]-NH2)	115

# context switch: different compound, same IC50
Exam item: Specify reported IC50 for the compound shown: C/C=C/CC[C@H](NC(=O)[C@H](CC(C)C)NC(=O)CNC(=O)[C@H](Cc1ccccc1)NC(=O)[C@H](Cc1ccccc1)NC(=O)[C@H](CCC(N)=O)NC(=O)[C@@H]1CCC(=O)N1)C(N)=O ([pGlu]QFFGL[X1]-NH2)
Marked response: 366

###

Biological target: Neuromedin-K receptor (Cavia porcellus)
Sequence (P30098 whole entry): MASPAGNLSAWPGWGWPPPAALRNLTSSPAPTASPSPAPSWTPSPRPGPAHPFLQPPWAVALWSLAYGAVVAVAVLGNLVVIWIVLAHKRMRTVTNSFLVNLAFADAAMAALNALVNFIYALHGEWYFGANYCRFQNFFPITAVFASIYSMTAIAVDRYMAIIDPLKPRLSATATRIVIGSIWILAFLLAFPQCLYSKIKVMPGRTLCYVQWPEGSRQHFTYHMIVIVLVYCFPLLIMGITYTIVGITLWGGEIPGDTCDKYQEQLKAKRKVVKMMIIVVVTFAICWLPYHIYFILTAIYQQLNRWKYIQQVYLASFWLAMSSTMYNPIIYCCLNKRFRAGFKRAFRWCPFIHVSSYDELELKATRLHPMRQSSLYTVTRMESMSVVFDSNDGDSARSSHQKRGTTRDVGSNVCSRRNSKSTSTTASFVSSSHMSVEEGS
Experiment: Concentration producing half-maximal inhibition of specific binding of [3H]senktide to Tachykinin receptor 3 in the guinea pig cerebral cortex
Type: tissue-based
Reported pIC50 values for the following substances.
By convention, pIC50 is the negative base-10 log of a molar concentration.

>>> print(df.to_string())
        substance  measured_parameter  experimental_result
0  Ac-QQFFGLM-NH2               pIC50                 6.56

Turning now to a further record.
Exam item: Answer with the recorded pIC50 for the substance listed here: H-QQFFGLM-NH2
Marked response: 5.95

###

Target: Substance-K receptor (Mesocricetus auratus)
Sequence (P51144 whole entry): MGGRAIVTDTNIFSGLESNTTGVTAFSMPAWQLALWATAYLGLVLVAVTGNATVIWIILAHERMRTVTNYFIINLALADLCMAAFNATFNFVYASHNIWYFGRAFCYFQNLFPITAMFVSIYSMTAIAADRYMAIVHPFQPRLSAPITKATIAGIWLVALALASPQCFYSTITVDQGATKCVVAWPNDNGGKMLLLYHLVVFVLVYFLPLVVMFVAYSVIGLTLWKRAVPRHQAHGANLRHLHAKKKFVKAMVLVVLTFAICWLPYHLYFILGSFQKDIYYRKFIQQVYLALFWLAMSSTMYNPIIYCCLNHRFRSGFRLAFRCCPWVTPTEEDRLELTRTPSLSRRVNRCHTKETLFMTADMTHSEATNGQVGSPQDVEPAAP
Test: Concentration producing half-maximal inhibition of specific binding of. [125I]neurokinin A to NK-2 receptors in the hamster urinary bladder
Assay type: single protein
MEASURED_PARAMETER: IC50
Param answer (str): number followed by unit.

>>> df
       substance  measured_parameter  experimental_result
0  H-QQFFGLM-NH2                IC50              3.29 µM

We now examine a further substance.
Exam item: Return reported IC50. Input substance: Ac-QQFFGLM-NH2
Marked response: 1.62 µM
